# System Name: human EP3 receptor (Homo sapiens, UniProt P43115)
# Sequence (P43115 whole entry): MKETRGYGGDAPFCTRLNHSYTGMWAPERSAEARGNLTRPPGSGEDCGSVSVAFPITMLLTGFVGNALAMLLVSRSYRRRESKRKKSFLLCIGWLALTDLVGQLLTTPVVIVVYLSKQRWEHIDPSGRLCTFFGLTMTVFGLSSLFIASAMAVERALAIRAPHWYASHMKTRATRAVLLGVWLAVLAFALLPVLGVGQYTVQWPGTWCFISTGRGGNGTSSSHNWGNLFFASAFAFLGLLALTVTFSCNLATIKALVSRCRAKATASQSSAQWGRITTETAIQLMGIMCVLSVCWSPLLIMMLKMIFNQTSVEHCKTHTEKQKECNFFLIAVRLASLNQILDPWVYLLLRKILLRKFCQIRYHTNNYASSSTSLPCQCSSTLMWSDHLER
# Method Summary: Cellular in vitro assay for determining EP3 receptor activity (human EP3 cell line, sulprostone-stimulated calcium luminescence)
# Run Conditions: CHO cells expressing human EP3 and mitochondrial Clytin; antagonist mode, sulprostone at EC50; read-out: EP3 CHO mtCLY ANTAG IC50
IC50 vs 3 nM: less than gives yes; not less than gives no.

Query: For C[C@H](NC(=O)c1nn2cc(-c3ccc4ccccc4c3)[nH]c(=O)c2c1C#N)c1ccccc1 , is the recorded IC50 below the cut-off of 3 nM?
Response: no

Query: For CN1CC(NC(=O)c2nn3cc(-c4ccc(Cl)c(C(F)F)c4)[nH]c(=O)c3c2C2CC2)(c2ccc(F)cc2)C1 , is the recorded IC50 below the cut-off of 3 nM?
Response: no

Query: For Cc1c(C(=O)NC2(c3ccc(Cl)cc3)CCC2)nn2c(C)c(-c3ccc4ccccc4c3)[nH]c(=O)c12 , is the recorded IC50 below the cut-off of 3 nM?
Response: no

Query: For CN(C)CC(NC(=O)c1nn2cc(-c3ccc4ccccc4c3)[nH]c(=O)c2c1C(F)(F)F)c1ccc(F)cc1 (racemic) , is the recorded IC50 below the cut-off of 3 nM?
Response: no

Query: For Cc1ccc(-c2cn3nc(C(=O)N[C@@H](c4ccc(F)cc4)C(F)(F)CO)c(C(F)(F)C(F)(F)F)c3c(=O)[nH]2)cc1F , is the recorded IC50 below the cut-off of 3 nM?
Response: yes

Query: For Cc1cccc2ncc(-c3cn4nc(C(=O)NCC(C)Cn5cccn5)c(C(C)C)c4c(=O)[nH]3)cc12 (stereo not shown) , is the recorded IC50 below the cut-off of 3 nM?
Response: yes

Query: For CC(C)(O)[C@@H](NC(=O)c1nn2cc(-c3ccc(C(F)(F)F)c(F)c3)[nH]c(=O)c2c1C1CC1)c1ccc(F)cc1 , is the recorded IC50 below the cut-off of 3 nM?
Response: no

Query: For Cc1ccc(-c2cn3nc(C(=O)N[C@@H](c4ccc(F)cc4)C(C)(C)O)c(C)c3c(=O)[nH]2)cc1Cl , is the recorded IC50 below the cut-off of 3 nM?
Response: yes

Query: For Cc1ccc(-c2cn3nc(C(=O)N[C@@H](c4ccc(F)cc4)C(F)(F)CO)c(C(F)(F)F)c3c(=O)[nH]2)cc1F , is the recorded IC50 below the cut-off of 3 nM?
Response: yes

Query: For COCc1c(C(=O)N[C@@H](c2ccc(F)cc2)C(F)(F)CO)nn2cc(-c3ccc(Cl)c(F)c3)[nH]c(=O)c12 , is the recorded IC50 below the cut-off of 3 nM?
Response: no

Query: For Cc1cc(-c2cn3nc(C(=O)N[C@H]4CCN(C5CC5)C4)c(C4CC4)c3c(=O)[nH]2)ccc1Cl (single isomer, unassigned) [6-323] , is the recorded IC50 below the cut-off of 3 nM?
Response: no

Query: For Cc1cc(-c2cn3nc(C(=O)N[C@H](C)C4CC4)c(C(F)(F)F)c3c(=O)[nH]2)ccc1Cl , is the recorded IC50 below the cut-off of 3 nM?
Response: yes

Query: For CC(NC(=O)c1cc2c(=O)[nH]c(-c3ccc4c(c3)OCCO4)cn2n1)c1ccc(F)cc1 (stereo not shown) , is the recorded IC50 below the cut-off of 3 nM?
Response: yes

Query: For Cc1cccc2ncc(-c3cn4nc(C(=O)NCc5ccnn5C)c(C(C)C)c4c(=O)[nH]3)cc12 , is the recorded IC50 below the cut-off of 3 nM?
Response: yes

Query: For COc1ccc(C(CCO)NC(=O)c2nn3cc(-c4cnc5cccc(C)c5c4)[nH]c(=O)c3c2C(C)C)cc1 (stereo not shown) , is the recorded IC50 below the cut-off of 3 nM?
Response: yes

Query: For Cc1ccc(-c2cn3nc(C(=O)NC4CC4C(C)C)c(C(F)(F)F)c3c(=O)[nH]2)cc1F (single isomer, unassigned) , is the recorded IC50 below the cut-off of 3 nM?
Response: no

Query: For CC(C)c1c(C(=O)N[C@@H](c2ccc(F)cc2)C(F)(F)CO)nn2cc(-c3ccc(Cl)c(F)c3)[nH]c(=O)c12 , is the recorded IC50 below the cut-off of 3 nM?
Response: no

Query: For CN(C)C(CNC(=O)c1cc2c(=O)[nH]c(-c3ccc4ccccc4c3)cn2n1)c1cccc(C(F)(F)F)c1 (stereo not shown) , is the recorded IC50 below the cut-off of 3 nM?
Response: no

Query: For Cc1ccc(-c2cn3nc(C(=O)N[C@H](C)c4ccc(F)cc4)c(C#N)c3c(=O)[nH]2)cc1C , is the recorded IC50 below the cut-off of 3 nM?
Response: yes

Query: For O=C(N[C@H](CCO)c1ccc(F)cc1)c1nn2cc(-c3ccc(Cl)c(Cl)c3)[nH]c(=O)c2c1C1CC1 , is the recorded IC50 below the cut-off of 3 nM?
Response: yes

Query: For Cc1cc(CNC(=O)c2nn3cc(-c4cnc5cccc(C)c5c4)[nH]c(=O)c3c2C(C)C)on1 , is the recorded IC50 below the cut-off of 3 nM?
Response: yes

Query: For Cc1ccc(-c2cn3nc(C(=O)NC(CO)c4ccc(F)cc4)c(C(F)(F)F)c3c(=O)[nH]2)cc1Cl (single isomer, unassigned) [6-155] , is the recorded IC50 below the cut-off of 3 nM?
Response: yes

Query: For CC(C)C(CNC(=O)c1cc2c(=O)[nH]c(-c3ccc4ccccc4c3)cn2n1)n1cccn1 (stereo not shown) , is the recorded IC50 below the cut-off of 3 nM?
Response: no

Query: For Cc1ccc(-c2cn3nc(C(=O)NCCNCC(F)F)c(C(F)(F)F)c3c(=O)[nH]2)cc1Cl , is the recorded IC50 below the cut-off of 3 nM?
Response: no

Query: For CC(C)(C)OC(=O)N1CC(C(NC(=O)c2cc3c(=O)[nH]c(-c4ccc5ccccc5c4)cn3n2)c2ccc(F)cc2)C1 (racemic) , is the recorded IC50 below the cut-off of 3 nM?
Response: yes

Query: For Cc1ccc(-c2[nH]c(=O)c3c(C4CC4)c(C(=O)N[C@H](C)c4ccc(F)cc4)nn3c2F)cc1Cl , is the recorded IC50 below the cut-off of 3 nM?
Response: no

Each recorded value in this set is attributed to patent US20220324865A1.
